# GI50 listing for each entry below
# Test system: HOP-92 NSCLC
# experimental.details: NCI tumour cell line growth inhibition, 48 h

Illustrative cases are given below, each with its answer.
{"columns": ["molecule", "readout.label", "result"],
 "data": [
  ["COc1ccc(SC2c3ccc(C)cc3Oc3nc(N)c(C#N)c(N)c32)cc1 (stereo not drawn)", "GI50", "1840 nM"],
  ["CC(C)[NH-].CC(C)[NH-].O.O.[Cl][Pt+2][Cl]", "GI50", "22300 nM"],
  ["O=c1oc(-c2ccccc2)cc2cccc(O)c12", "GI50", "16800 nM"],
  ["CN[C@@H]1C[C@H]2O[C@@](C)([C@@H]1OC)n1c3ccccc3c3c4c(c5c6ccccc6n2c5c31)C(=O)N[C@H]4O", "GI50", "7.53 nM"]
]}

Tell me the measured GI50 of COc1ccc2c(c1)CCc1[nH]nc(-c3cc(OC)c(OC)c(OC)c3)c1-2 , please.
< 10 nM

Then this molecule: C[n+]1c2ccccc2c(Nc2ccc(NS(=O)(=O)CCCCN=C(N)N)cc2)c2ccc(N)cc21
1920 nM

Then this molecule: CC1(C)N=C(N)N=C(N)N1c1ccc(CCc2ccc(Cl)cc2S(=O)(=O)F)c(Cl)c1
16600 nM

Then this molecule: Cn1cc(-c2nc(-c3c[nH]c4ccncc34)cs2)c2cc(F)ccc21
1650 nM
